biological target: ErbB2 (D769Y) (Homo sapiens, UniProt P04626, D769Y); experiment: ErbB2 mutant inhibition assay (33P-ATP radiometric kinase assay, Reaction Biology); details: ATP 10 μM, 20 min preincubation, 2 h reaction; read-out: Compound IC50 ErbB2 (D769Y)
Sequence (P04626 23-1255 D769Y): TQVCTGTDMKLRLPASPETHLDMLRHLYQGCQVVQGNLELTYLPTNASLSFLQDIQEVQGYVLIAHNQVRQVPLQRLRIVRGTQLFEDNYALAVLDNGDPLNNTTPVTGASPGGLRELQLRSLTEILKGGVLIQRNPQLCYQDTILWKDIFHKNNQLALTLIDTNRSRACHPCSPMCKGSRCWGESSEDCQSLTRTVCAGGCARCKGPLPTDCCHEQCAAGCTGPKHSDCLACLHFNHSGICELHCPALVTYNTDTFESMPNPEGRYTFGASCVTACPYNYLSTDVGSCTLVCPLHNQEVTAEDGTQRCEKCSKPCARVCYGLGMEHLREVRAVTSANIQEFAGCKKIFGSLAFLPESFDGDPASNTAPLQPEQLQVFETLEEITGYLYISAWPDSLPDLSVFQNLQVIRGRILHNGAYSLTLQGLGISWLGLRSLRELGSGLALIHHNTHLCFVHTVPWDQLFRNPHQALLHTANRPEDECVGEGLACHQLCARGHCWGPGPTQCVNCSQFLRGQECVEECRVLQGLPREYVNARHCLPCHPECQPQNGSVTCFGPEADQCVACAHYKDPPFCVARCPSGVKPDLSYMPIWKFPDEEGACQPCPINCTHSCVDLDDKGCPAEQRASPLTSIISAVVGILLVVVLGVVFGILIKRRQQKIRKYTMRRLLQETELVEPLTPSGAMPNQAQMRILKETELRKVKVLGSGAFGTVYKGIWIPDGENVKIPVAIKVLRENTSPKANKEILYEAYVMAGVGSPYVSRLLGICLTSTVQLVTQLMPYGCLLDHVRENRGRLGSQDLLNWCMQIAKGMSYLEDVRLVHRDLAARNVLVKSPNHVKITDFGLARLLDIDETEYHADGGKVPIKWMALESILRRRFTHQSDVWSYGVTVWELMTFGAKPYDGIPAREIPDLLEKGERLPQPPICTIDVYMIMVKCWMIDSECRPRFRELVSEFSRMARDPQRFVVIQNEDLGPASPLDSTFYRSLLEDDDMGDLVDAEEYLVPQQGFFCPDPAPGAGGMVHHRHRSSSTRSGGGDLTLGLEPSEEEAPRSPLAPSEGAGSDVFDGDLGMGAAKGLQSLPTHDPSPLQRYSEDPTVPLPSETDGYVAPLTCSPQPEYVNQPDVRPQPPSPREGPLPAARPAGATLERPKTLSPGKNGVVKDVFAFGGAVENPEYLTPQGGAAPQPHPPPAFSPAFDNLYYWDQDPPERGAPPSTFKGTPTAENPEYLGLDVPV
Measured Endpoint: IC50 (nM)

Some entries whose results are on file:
Lookup: # get_value(readout= IC50, system= ErbB2 (D769Y) (Homo sapiens, UniProt P04626, D769Y)) for `Cc1cc(Nc2ncnc3ccc(NC(=O)/C=C/[C@@H]4CCCN4C)cc23)ccc1Oc1cc2nncn2cn1`
Found: 1.45

Lookup: Kindly state the measured IC50 obtained for CCOc1cc2ncc(C#N)c(Nc3ccc(OCc4ccccn4)c(Cl)c3)c2cc1NC(=O)/C=C/[C@H]1CCCN1C [Pyrotinib, reference compound] with ErbB2 (D769Y) (Homo sapiens, UniProt P04626, D769Y).
Found: 91.7

[P] Cc1cc(Nc2ncnc3ccc(NC(=O)/C=C/[C@H]4CCCN4C)cc23)ccc1Oc1cc2nccn2cn1
[Q] Cc1cc(Nc2ncnc3ccc(NC(=O)/C=C/C4COCCN4)cc23)ccc1Oc1cc2nncn2cn1 (stereo not shown)
[R] CCOc1cc2ncnc(Nc3ccc(Oc4ccn5ncnc5c4)c(C)c3)c2cc1NC(=O)/C(F)=C/[C@@H]1CCCN1C
[S] CCOc1cc2ncnc(Nc3ccc(Oc4ccn5ncnc5c4)c(C)c3)c2cc1NC(=O)/C(F)=C/[C@H]1CCCN1C
[T] Cc1cc(Nc2ncnc3ccc(NC(=O)/C=C/[C@H]4CCCN4C)cc23)ccc1Oc1cnc2ccnn2c1
Lookup: Put the compounds in ascending order of IC50. Answer with the labels in sequence, matching the requested order.
Found: P, T, Q, S, R
(P: 0.216 nM, T: 0.6 nM, Q: 0.892 nM, S: 1.4 nM, R: 2.44 nM)

---

target: ErbB2 (R896C) (Homo sapiens, UniProt P04626, R896C); assay: ErbB2 mutant inhibition assay (33P-ATP radiometric kinase assay, Reaction Biology); conditions: ATP 10 μM, 20 min preincubation, 2 h reaction; read-out: Compound IC50 ErbB2 (R896C)
Sequence (P04626 23-1255 R896C): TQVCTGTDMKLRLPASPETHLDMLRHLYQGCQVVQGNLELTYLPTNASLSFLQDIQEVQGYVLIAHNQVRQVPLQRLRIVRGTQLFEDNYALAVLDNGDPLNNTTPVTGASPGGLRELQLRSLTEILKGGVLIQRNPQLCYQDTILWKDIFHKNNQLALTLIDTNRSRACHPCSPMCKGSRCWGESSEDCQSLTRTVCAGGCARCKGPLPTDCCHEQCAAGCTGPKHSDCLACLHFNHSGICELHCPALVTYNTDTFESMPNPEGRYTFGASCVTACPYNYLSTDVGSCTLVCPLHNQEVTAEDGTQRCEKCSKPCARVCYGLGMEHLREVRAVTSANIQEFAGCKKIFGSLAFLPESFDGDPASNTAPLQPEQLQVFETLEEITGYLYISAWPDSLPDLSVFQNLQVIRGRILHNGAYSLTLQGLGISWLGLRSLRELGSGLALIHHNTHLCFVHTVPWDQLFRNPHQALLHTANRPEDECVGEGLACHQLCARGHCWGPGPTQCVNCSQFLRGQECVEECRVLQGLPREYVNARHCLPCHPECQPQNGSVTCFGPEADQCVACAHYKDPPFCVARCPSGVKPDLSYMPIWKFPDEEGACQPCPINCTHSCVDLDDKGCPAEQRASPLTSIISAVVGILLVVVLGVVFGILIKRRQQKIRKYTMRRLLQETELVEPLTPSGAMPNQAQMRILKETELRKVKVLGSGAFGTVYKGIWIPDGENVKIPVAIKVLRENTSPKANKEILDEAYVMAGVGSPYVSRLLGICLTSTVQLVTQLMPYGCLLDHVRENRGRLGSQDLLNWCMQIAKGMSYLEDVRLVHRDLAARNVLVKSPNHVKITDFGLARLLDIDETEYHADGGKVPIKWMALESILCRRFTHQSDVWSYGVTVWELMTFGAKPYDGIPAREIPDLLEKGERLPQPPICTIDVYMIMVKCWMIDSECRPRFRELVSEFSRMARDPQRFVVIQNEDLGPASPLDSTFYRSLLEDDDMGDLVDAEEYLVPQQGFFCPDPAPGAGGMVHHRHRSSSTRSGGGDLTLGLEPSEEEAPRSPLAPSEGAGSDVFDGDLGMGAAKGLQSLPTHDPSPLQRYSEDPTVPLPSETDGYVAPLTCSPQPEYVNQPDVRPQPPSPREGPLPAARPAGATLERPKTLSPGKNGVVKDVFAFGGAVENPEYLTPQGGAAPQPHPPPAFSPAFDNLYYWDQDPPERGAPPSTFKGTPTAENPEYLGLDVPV
Measured Endpoint: IC50 (nM)

Lookup: Fill in the recorded IC50 for this molecule, with ErbB2 (R896C) (Homo sapiens, UniProt P04626, R896C) as test system: `COCCOc1cc2ncnc(Nc3ccc(Oc4cc5nncn5cn4)c(C)c3)c2cc1NC(=O)/C=C/[C@H]1CCCN1C`
Found: 0.599

[1] Cc1cc(Nc2ncnc3ccc(NC(=O)/C=C/[C@H]4CCCN4)cc23)ccc1Oc1cc2nncn2cn1
[2] Cc1cc(Nc2ncnc3ccc(NC(=O)/C=C/[C@H]4CCCN4C)cc23)ccc1Oc1cc2nccn2cn1
[3] Cc1cc(Nc2ncnc3ccc(NC(=O)/C(F)=C/[C@H]4CCCN4C)cc23)ccc1Oc1cc2nncn2cn1
Lookup: Exam item: list the entries in increasing order of IC50. Write out the labels following the order that was asked for.
Found: 2, 1, 3

---

molecular target: ErbB2 (V777L) (Homo sapiens, UniProt P04626, V777L); experiment: ErbB2 mutant inhibition assay (33P-ATP radiometric kinase assay, Reaction Biology); details: ATP 10 μM, 20 min preincubation, 2 h reaction; read-out: Compound IC50 ErbB2 (V777L)
Sequence (P04626 23-1255 V777L): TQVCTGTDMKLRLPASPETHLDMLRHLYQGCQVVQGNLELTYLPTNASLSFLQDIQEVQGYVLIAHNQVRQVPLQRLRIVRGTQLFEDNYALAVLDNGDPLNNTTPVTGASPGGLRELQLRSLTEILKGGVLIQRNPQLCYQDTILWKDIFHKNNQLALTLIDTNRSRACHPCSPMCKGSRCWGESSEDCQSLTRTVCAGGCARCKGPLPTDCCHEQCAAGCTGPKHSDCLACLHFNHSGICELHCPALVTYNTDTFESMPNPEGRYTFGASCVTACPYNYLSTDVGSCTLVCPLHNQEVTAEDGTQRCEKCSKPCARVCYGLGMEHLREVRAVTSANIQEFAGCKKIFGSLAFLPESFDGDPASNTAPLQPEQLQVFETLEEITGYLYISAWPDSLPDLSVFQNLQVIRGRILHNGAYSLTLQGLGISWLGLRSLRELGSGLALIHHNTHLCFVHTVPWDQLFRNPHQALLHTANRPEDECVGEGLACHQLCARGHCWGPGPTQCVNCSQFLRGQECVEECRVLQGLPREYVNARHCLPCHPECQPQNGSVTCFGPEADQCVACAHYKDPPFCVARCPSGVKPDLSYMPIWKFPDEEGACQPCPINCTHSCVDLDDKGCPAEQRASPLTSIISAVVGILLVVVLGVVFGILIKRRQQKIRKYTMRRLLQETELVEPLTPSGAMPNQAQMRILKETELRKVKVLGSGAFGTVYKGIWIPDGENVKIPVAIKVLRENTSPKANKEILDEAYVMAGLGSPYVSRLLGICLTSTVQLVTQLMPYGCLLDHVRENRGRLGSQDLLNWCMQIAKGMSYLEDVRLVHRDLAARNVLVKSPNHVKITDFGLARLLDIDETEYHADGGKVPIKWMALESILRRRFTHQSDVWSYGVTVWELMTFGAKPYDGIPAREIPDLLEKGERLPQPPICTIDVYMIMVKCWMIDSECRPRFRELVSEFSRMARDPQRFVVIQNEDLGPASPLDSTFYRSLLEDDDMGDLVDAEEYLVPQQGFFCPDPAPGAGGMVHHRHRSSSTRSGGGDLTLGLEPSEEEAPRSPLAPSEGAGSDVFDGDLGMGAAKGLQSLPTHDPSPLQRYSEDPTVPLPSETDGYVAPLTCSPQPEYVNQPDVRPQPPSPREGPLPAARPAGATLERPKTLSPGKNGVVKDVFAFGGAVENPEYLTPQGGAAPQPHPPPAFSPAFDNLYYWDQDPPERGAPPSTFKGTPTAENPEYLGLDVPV
Measured Endpoint: IC50 (nM)

Please review the entries below; each comes with its answer.
Lookup: Tell me the measured IC50 of `Cc1cc(Nc2ncnc3ccc(NC(=O)/C=C/[C@H]4CCCN4C)cc23)ccc1Oc1ccn2cnnc2c1` , please.
Found: 0.625

Lookup: # get_value(readout='IC50', item= `CCOc1cc2ncc(C#N)c(Nc3ccc(Oc4cc5nncn5cn4)c(C)c3)c2cc1NC(=O)/C=C/[C@H]1CCCN1C` )
Found: 0.889

Lookup: May I ask what IC50 has been recorded for `CCOc1cc2ncnc(Nc3ccc(Oc4ccn5ncnc5c4)c(C)c3)c2cc1NC(=O)/C(F)=C/[C@H]1CCCN1C` ?
Found: 0.312

[1] Cc1cc(Nc2ncnc3ccc(NC(=O)/C=C/C4COCCN4)cc23)ccc1Oc1cc2nncn2cn1 (stereo not drawn)
[2] Cc1cc(Nc2ncnc3ccc(NC4=NC(C)(C)CO4)cc23)ccc1Oc1ccn2ncnc2c1 [Tucatinib, reference compound]
Lookup: Could you tell me which of 1 and 2 has the lower IC50 reading? Label of pick, please.
Found: 1
(1: 0.438 nM, 2: 1.08 nM)
